- System: S. epidermidis (ATCC 35984) biofilm
- protocolNotes: Biofilm-formation inhibitory activity, crystal violet staining
- Type: cell-based, Staphylococcus epidermidis
- conditionLabel: minimum concentration inhibiting biofilm formation more than 90%; CV staining, TSB, 10^6 CFU/mL, 24 h, 37°C, 0.98-250 µg/mL
attributeMeasured: MBIC90 (µg/mL)
Give the quantity in µg/mL, number only.

**Q:** Which value of MBIC90 has been reported for CN[C@H](CC(C)C)C(=O)N[C@H]1C(=O)N[C@@H](CC(N)=O)C(=O)N[C@H]2C(=O)N[C@H]3C(=O)N[C@H](C(=O)N[C@H](C(=O)O)c4cc(O)cc(O)c4-c4cc3ccc4O)[C@H](O)c3ccc(c(Cl)c3)Oc3cc2cc(c3O[C@@H]2O[C@H](CO)[C@@H](O)[C@H](O)[C@H]2O[C@H]2C[C@](C)(N)[C@H](O)[C@H](C)O2)Oc2ccc(cc2Cl)[C@H]1O [vancomycin, reference compound] in the records?
**A:** 3.91

Source listed as paper PMC11100219.
